Source: patent US20220193132A1

molecular target: T1, EGFRvIII, full length, overexpressed on glioblastoma cells (human, UniProt P00533 298-623); assay: flow cytometry dose-response on U87MG-EGFRvIII cells, apparent Kd
T1 construct: Cells overexpress full length EGFRvIII (deletion of exons 2-7 of EGFR); Cell line (U87MG or DKMG) is named under assay; also called U87MG-EGFRvIII; U87vIII
assay.metric: pKd
Note on pKd: it is the negative log10 of concentration, concentration in mol/L.

binder="F266-11H3 (antibody, V domains shown, Mouse hybridoma mAb) VH: QIQLVQSGPELKKPGETVKISCKASGYTFTTAGMQWVQKMPGKGFKWIGWINTHSGDPKYAEDFKGRFAFSLETYASTAYLQISNLKNEDTATYFCARTHIYDGYNYAMDYWGQGTSVTVSS VL: DVVMTQTPLSLPVSLGDQASISCRSSQSLVYSNGNTYLHWYLQKPGQSPKLLIYKVSNRFSGVPDRFSGSGSGTDFTLKISRVEAEDLGVYFCSQSTHVPFTFGSGTKLEIK" obs_value=8.60
binder="F266-11C8 (antibody, V domains shown, Mouse hybridoma mAb; also called 11H5 (11C8)) VH: QIQLVQSGPELKKPGETVKISCKASGYTFTTAGMQWVQKMPGKGFKWIGWINTHSGDPKYAEDFKGRFAFSLETYASTAYLQISNLKNEDTASYFCARTHIYDGYNYAMDYWGQGTSVTVSS VL: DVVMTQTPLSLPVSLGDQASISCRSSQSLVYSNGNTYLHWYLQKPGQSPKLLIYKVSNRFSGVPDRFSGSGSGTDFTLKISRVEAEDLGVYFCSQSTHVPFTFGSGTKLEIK" obs_value=8.46
binder="F263-4E11 (antibody, V domains shown, Mouse hybridoma mAb) VH: DVQLQESGPGLVKPSQSLSLTCTVTGYSITSDYAWNWIRQFPGNKLEWMGYIGYNGRTSYNPSLKSRISITRDTSKNQFFLQLNYVTTEDTATFYCARLGRGFAYWGQGTLVTVSA VL: DILMTQSPSSMSVSLGDTVSITCHASQGINSNIGWLLQKPGKSFKGLIYHGTNLEDGVPSRFSGSGSGTDYSLTISSLESEDFADYYCVQYAQFPYTFGGGTKLEIK" obs_value=8.17

Task: Form field: reported pKd of F263-5D8 (antibody, V domains shown, Mouse hybridoma mAb) VH: EVQLQQSGPDLVKPGSSVKISCKASGYTFTDYNIDWVKQSHGKSLEWIGTINPNYGGTSYNQKFKGKATLTVDKSSSTAYMELRSLTSEDSAVYYCARGYDYDLWFAYWGQGTLVTVSA VL: EIVLTQSPVFMAASPGEKVTITCSVSSSISSSNLHWYQQKSETSPKPWIYGTSNLASGVPVRFSGSGSGTSYSLTISSMEAEDAATYYCQQWSSYPLTFGAGTKLELK
Output: 7.71
